- System: Hepatitis B virus
- Experiment summary: Hepatitis B Virus Activity (method of Jansen et al. 1993)
- Type: cell-based
- Condition: n=2, read-out: IC50 against Hepatitis B virus
pIC50: −log10 of the molar value.

Test smiles	Measured target	pIC50
Nc1ncnc2c1ncn2[C@@H]1C=C[C@H](CO)C1	Hepatitis B virus	6.00
